The values you see were collected from ChEMBL document CHEMBL5352468.

Listed here: items and their measured pKd.
Molecular target: Beta-1 adrenergic receptor (Homo sapiens)
Sequence (P08588 whole entry): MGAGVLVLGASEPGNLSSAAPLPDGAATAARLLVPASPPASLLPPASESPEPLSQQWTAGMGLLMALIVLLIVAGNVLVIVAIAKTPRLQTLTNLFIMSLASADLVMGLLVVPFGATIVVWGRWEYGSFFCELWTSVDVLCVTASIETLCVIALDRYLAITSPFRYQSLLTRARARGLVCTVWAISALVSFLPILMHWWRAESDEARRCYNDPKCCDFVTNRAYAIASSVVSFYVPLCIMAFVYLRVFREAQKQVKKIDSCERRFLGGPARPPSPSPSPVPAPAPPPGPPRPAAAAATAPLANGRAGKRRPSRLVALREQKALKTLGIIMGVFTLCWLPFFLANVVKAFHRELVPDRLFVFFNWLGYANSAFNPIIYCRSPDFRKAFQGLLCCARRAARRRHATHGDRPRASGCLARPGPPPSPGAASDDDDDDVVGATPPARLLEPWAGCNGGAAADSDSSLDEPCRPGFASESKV
Test: Antagonist activity at human beta1-adrenergic receptor expressed in CHO-K1 cells co-expressing CRE-SPAP reporter gene assessed as inhibition of fenoterol-induced CRE-SPAP production by measuring rightward shift of the fenoterol concentration response curve measured after 5 hrs incubation
Assay type: functional, cell-based
Conditions: read-out: Kd
pKd: −log10 of the molar value.

Consider the reported pKd for these molecules:
| moleculeSmiles | pKd |
| --- | --- |
| CC1(C)CC(=O)c2ccc(OC[C@@H](O)CNCCCN3C(=O)c4ccccc4C3=O)cc2O1 | < 5.00 |
| COc1ccc(S(=O)(=O)NCCCCNC[C@H](O)COc2ccc3c(c2)OC(C)(C)CC3=O)cc1 | < 5.00 |

Ask: Consider the molecule CC1(C)CC(=O)c2ccc(OC[C@H](O)CNCCCN3C(=O)c4ccccc4C3=O)cc2O1 and give its recorded pKd.
Result: < 5.00

* * *

Listed here: items and their measured Kd.
Target: UniProtKB P08588
Experiment: Antagonist activity at human beta1-adrenergic receptor expressed in CHO-K1 cells co-expressing CRE-SPAP reporter gene assessed as inhibition of fenoterol-induced CRE-SPAP production by measuring rightward shift of the fenoterol concentration response curve measured after 5 hrs incubation
Type: functional, cell-based
Conditions: read-out: pKd (converted)
The answer is to be given in nM; state only the numeric part.

| molecule | Kd (nM) |
| --- | --- |
| CC(=O)NCc1cccc(OC[C@@H](O)CNCCc2ccc(NS(=O)(=O)c3ccccc3)cc2)c1 | 339 |
| O[C@@H](CNCC1COc2ccccc2O1)COc1ccc2c(c1)OCO2 (stereo partly specified) | 1580 |
| O[C@@H](CNCC1COc2ccccc2O1)COc1cccc2cnccc12 (stereo partly specified) | 102 |
| O[C@@H](CNCC1COc2ccccc2O1)COc1ccnc2ccccc12 (stereo partly specified) | 6030 |
| CCc1ccccc1OC[C@@H](O)CNCCC(c1ccccc1)c1ccccc1 | 135 |

Next, consider the following molecule.
Ask: Consider the molecule O=c1ccc2ccc(OC[C@@H](O)CNCCc3ccc4c(c3)OCO4)cc2o1 and give its recorded Kd.
Result: 5620

* * *

Molecular target: Beta-2 adrenergic receptor (Homo sapiens, UniProt P07550)
Sequence (P07550 whole entry): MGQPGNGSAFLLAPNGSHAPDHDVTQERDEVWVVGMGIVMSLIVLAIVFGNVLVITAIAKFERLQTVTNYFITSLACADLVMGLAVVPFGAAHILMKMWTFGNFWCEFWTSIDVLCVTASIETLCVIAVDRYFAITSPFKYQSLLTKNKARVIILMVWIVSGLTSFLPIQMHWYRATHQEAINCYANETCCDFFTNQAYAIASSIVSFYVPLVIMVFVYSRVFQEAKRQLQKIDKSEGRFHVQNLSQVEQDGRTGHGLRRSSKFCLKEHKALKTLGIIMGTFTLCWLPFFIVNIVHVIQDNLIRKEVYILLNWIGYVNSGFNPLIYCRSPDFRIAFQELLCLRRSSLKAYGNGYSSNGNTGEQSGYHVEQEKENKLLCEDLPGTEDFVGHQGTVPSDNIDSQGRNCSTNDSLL
Experiment: Agonist activity at human beta2-adrenergic receptor expressed in CHO-K1 cells co-expressing CRE-SPAP reporter gene assessed as CRE-SPAP production measured after 5 hrs incubation
Format: functional, cell-based
Conditions: read-out: EC50
measurementName: pEC50
Remember the convention: pEC50 equals -log10 of concentration in molar.

| molecule | pEC50 |
| --- | --- |
| O[C@@H](CNCC1COc2ccccc2O1)COc1cccc2cnccc12 (some centres not stated) | 5.00 |

Ask: Consider the molecule CC(=O)NCc1cccc(OC[C@@H](O)CNCCc2ccc(NS(=O)(=O)c3ccccc3)cc2)c1 and give its recorded pEC50.
Result: 5.00
